Collected MEC values appear next to each entry.
Test system: Acinetobacter baumannii
measurement description: Inhibition of Acinetobacter baumannii AB1053 OXA-72 assessed as minimum concentration of compound needed to reduce the MIC of meropenem to 8 ug/ml
State the answer as a number, implicitly in µg/mL.

COc1ccc2c(c1C(=O)O)OB(O)C1CCC21 (stereo not given) :: 5
COc1ccc2c(c1C(=O)O)OB(O)C=C2 :: 20
COc1ccc2c(c1C(=O)O)OB(O)[C@@H]1C[C@H]21 :: 0.6
O=C(O)c1cccc2c1OB(O)[C@@H]1C[C@H]21 :: 5
O=C(O)c1c(F)ccc2c1OB(O)[C@@H]1C[C@H]21 :: 0.6

**Query** Given COc1ccc2c(c1C(=O)O)OB(O)C1C2C1(F)F (stereo not given) , respond with its MEC.
**Result** 5

**Query** Given O=C(O)c1nccc2c1OB(O)[C@H]1C[C@@H]21 , respond with its MEC.
**Result** 5

**Query** Given O=C(O)c1cccc2c1OB(O)[C@H]1C[C@@H]21 , respond with its MEC.
**Result** 20

**Query** Given O=C(O)c1nccc2c1OB(O)CC2 , respond with its MEC.
**Result** 1.25

**Query** Given COc1ccc2c(c1C(=O)O)OB(O)[C@H]1C[C@@H]21 , respond with its MEC.
**Result** 0.6

**Query** Given COc1ccc2c(c1C(=O)O)OB(O)CC21CC1 , respond with its MEC.
**Result** 1.25

**Query** Given O=C(O)c1c(F)ccc2c1OB(O)[C@H]1C[C@@H]21 , respond with its MEC.
**Result** 5

====

Collected MEC values appear next to each entry.
Tested on: Klebsiella pneumoniae
measurement description: Inhibition of Klebsiella pneumoniae KP1054 VIM-1 assessed as minimum concentration of compound required to reduce the MIC of biapenem to 1 ug/ml
State the answer as a number, implicitly in µg/mL.

O=C(O)c1c(F)ccc2c1OB(O)CC2 :: 5

# ---- query compound ----
**Query** Given COc1ccc2c(c1C(=O)O)OB(O)C1(CC1)C2 , respond with its MEC.
**Result** 5

====

Test system: Klebsiella pneumoniae
measurement description: Inhibition of Klebsiella pneumoniae KP1081 NDM-1 assessed as minimum concentration of compound required to reduce the MIC of biapenem to 1 ug/ml
measurement name: MEC (µg/mL)
State the answer as a number, implicitly in µg/mL.

Here are 2 compounds together with their reported answers.
COc1ccc2c(c1C(=O)O)OB(O)C1(CO)CC21 (stereo unspecified) :: 0.6
O=C(O)c1cccc2c1OB(O)CC2 :: 1.25

# ---- query compound ----
**Query** Provide the reported MEC (system: Klebsiella pneumoniae) for O=C(O)c1nccc2c1OB(O)[C@H]1C[C@@H]21
**Result** 20

====

system: Beta-lactamase (Klebsiella pneumoniae) (UniProt Q93LQ9)
Sequence (Q93LQ9 as listed by the source): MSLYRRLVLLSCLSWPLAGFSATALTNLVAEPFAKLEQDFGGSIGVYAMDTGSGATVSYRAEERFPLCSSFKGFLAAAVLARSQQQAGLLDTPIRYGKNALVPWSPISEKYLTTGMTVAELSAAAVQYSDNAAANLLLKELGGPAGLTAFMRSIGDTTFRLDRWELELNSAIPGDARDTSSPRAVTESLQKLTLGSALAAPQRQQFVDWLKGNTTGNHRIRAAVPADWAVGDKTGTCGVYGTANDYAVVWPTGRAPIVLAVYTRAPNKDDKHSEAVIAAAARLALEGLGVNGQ
measurement description: Inhibition of Klebsiella pneumoniae KP1004 KPC-2 assessed as minimum concentration of compound needed to reduce the MIC of aztreonam to 4 ug/ml
Decide by MEC: equal to or exceeding 0.6 µg/mL means Y, less means N.

O=C(O)c1c(F)ccc2c1OB(O)[C@@H]1C[C@H]21 :: N
O=C(O)c1c(OCC2CC2)ccc2c1OB(O)[C@@H](Sc1nncs1)C2 :: Y

**Query** Is reported MEC greater than or equal to 0.6 µg/mL here: Nn1cnnc1S[C@H]1Cc2cccc(C(=O)O)c2OB1O
**Result** Y

**Query** Is reported MEC greater than or equal to 0.6 µg/mL here: O=C(O)c1cccc2c1OB(O)[C@@H](Sc1cccnc1)C2
**Result** Y

**Query** Is reported MEC greater than or equal to 0.6 µg/mL here: COc1ccc2c(c1C(=O)O)OB(O)CC2
**Result** N

**Query** Is reported MEC greater than or equal to 0.6 µg/mL here: COc1ccc2c(c1C(=O)O)OB(O)[C@@H](NC(=O)CSC)C2
**Result** N

**Query** Is reported MEC greater than or equal to 0.6 µg/mL here: COc1ccc2c(c1C(=O)O)OB(O)C1CCC21 (stereo unspecified)
**Result** Y

**Query** Is reported MEC greater than or equal to 0.6 µg/mL here: COc1ccc2c(c1C(=O)O)OB(O)CC21CC1
**Result** Y

**Query** Is reported MEC greater than or equal to 0.6 µg/mL here: COc1ccc2c(c1C(=O)O)OB(O)[C@H]1C[C@@H]21
**Result** N

**Query** Is reported MEC greater than or equal to 0.6 µg/mL here: CO[C@H]1Cc2cccc(C(=O)O)c2OB1O
**Result** N

**Query** Is reported MEC greater than or equal to 0.6 µg/mL here: O=C(O)c1nccc2c1OB(O)CC2
**Result** N

**Query** Is reported MEC greater than or equal to 0.6 µg/mL here: COc1ccc2c(c1C(=O)O)OB(O)C1(CO)CC21 (stereo unspecified)
**Result** Y

**Query** Is reported MEC greater than or equal to 0.6 µg/mL here: COCCOc1ccc2c(c1C(=O)O)OB(O)[C@@H](Sc1nncs1)C2
**Result** Y

**Query** Is reported MEC greater than or equal to 0.6 µg/mL here: O=C(O)c1c(F)ccc2c1OB(O)[C@H]1C[C@@H]21
**Result** N

**Query** Is reported MEC greater than or equal to 0.6 µg/mL here: O=C(O)c1cccc2c1OB(O)[C@@H](Sc1nnc[nH]1)C2
**Result** Y

**Query** Is reported MEC greater than or equal to 0.6 µg/mL here: COc1ccc2c(c1C(=O)O)OB(O)[C@@H](Sc1nncs1)C2
**Result** Y

**Query** Is reported MEC greater than or equal to 0.6 µg/mL here: CSCC(=O)N[C@H]1Cc2ccc(SC3CNC3)c(C(=O)O)c2OB1O
**Result** Y

**Query** Is reported MEC greater than or equal to 0.6 µg/mL here: CSCC(=O)N[C@H]1Cc2ccc(SCC(N)=O)c(C(=O)O)c2OB1O
**Result** Y

**Query** Is reported MEC greater than or equal to 0.6 µg/mL here: CSCC(=O)N[C@H]1Cc2ccc(O)c(C(=O)O)c2OB1O
**Result** Y

**Query** Is reported MEC greater than or equal to 0.6 µg/mL here: O=C(O)c1c(F)ccc2c1OB(O)[C@@H](Sc1nncs1)C2
**Result** Y

**Query** Is reported MEC greater than or equal to 0.6 µg/mL here: N=C(N)S[C@H]1Cc2cccc(C(=O)O)c2OB1O
**Result** Y

====

System: Pseudomonas aeruginosa
measurement description: Inhibition of Pseudomonas aeruginosa PAM 2035 AmpC assessed as minimum concentration of compound needed to reduce the MIC of aztreonam to 4 ug/ml
Collected MEC values appear next to each entry.
State the answer as a number, implicitly in µg/mL.

Here are 5 compounds together with their reported answers.
Nc1nnc(S[C@H]2Cc3ccc(OCC(F)F)c(C(=O)O)c3OB2O)s1 :: 20
COc1ccc2c(c1C(=O)O)OB(O)CC2 :: 1.25
CSCC(=O)N[C@H]1Cc2ccc(SC3CNC3)c(C(=O)O)c2OB1O :: 20
COc1ccc2c(c1C(=O)O)OB(O)C1CCC21 (stereo not given) :: 10
O=C(O)c1c(OC(F)F)ccc2c1OB(O)[C@@H](Sc1nncs1)C2 :: 20

**Query** Given COc1ccc2c(c1C(=O)O)OB(O)C1(CO)CC21 (stereo not given) , respond with its MEC.
**Result** 20

**Query** Given COc1ccc2c(c1C(=O)O)OB(O)[C@@H](NC(=O)CSC)C2 , respond with its MEC.
**Result** 20

**Query** Given O=C(O)c1cccc2c1OB(O)CC2 , respond with its MEC.
**Result** 0.6

**Query** Given CSCC(=O)N[C@H]1Cc2ccc(SC)c(C(=O)O)c2OB1O , respond with its MEC.
**Result** 20

**Query** Given O=C(O)c1nccc2c1OB(O)CC2 , respond with its MEC.
**Result** 0.3

**Query** Given COc1ccc2c(c1C(=O)O)OB(O)[C@@H]1C[C@H]21 , respond with its MEC.
**Result** 2.5

**Query** Given O=C(O)c1nccc2c1OB(O)[C@H]1C[C@@H]21 , respond with its MEC.
**Result** 10

**Query** Given O=C(O)c1c(F)ccc2c1OB(O)CC2 , respond with its MEC.
**Result** 0.6

**Query** Given COc1ccc2c(c1C(=O)O)OB(O)C1(CC1)C2 , respond with its MEC.
**Result** 10

**Query** Given COc1ccc2c(c1C(=O)O)OB(O)[C@H]1C[C@@H]21 , respond with its MEC.
**Result** 2.5

**Query** Given COc1ccc2c(c1C(=O)O)OB(O)C1CC21 (stereo not given) , respond with its MEC.
**Result** 5

**Query** Given COc1ccc2c(c1C(=O)O)OB(O)C(F)=C2 , respond with its MEC.
**Result** 5

**Query** Given CSCC(=O)N[C@H]1Cc2ccc(O)c(C(=O)O)c2OB1O , respond with its MEC.
**Result** 5

**Query** Given COc1ccc2c(c1C(=O)O)OB(O)CC21CC1 , respond with its MEC.
**Result** 10

**Query** Given O=C(O)c1c(F)ccc2c1OB(O)[C@H]1C[C@@H]21 , respond with its MEC.
**Result** 5

**Query** Given O=C(O)c1cccc2c1OB(O)[C@H]1C[C@@H]21 , respond with its MEC.
**Result** 2.5

**Query** Given O=C(O)c1c(OCC2CC2)ccc2c1OB(O)[C@@H](Sc1nncs1)C2 , respond with its MEC.
**Result** 20

**Query** Given CSCC(=O)N[C@H]1Cc2cccc(C(=O)O)c2OB1O , respond with its MEC.
**Result** 2.5
